Test system: K. pneumoniae ATCC 10031 (SEN) and K. pneumoniae ATCC 700603 (MDR)
Assay: Adaptive laboratory evolution (ALE), relative MIC of evolved lines
Format: cell-based, Klebsiella pneumoniae
Conditions: KP-SEN (Klebsiella pneumoniae ATCC 10031), evolved line 5 adapted to the named antibiotic
measuredAttribute: Relative MIC (log10)

>>> result("CN(C)c1cc(CNCC(C)(C)C)c(O)c2c1C[C@H]1C[C@H]3[C@H](N(C)C)C(O)=C(C(N)=O)C(=O)[C@@]3(O)C(O)=C1C2=O")
2.107
>>> result("C[C@H]1c2cccc(O)c2C(=O)C2=C(O)[C@]3(O)C(=O)C(C(N)=O)=C(O)[C@@H](N(C)C)[C@@H]3[C@@H](O)[C@@H]21")
2.408
>>> result("CNC(C)C1CCC(N)C(OC2C(N)CC(N)C(OC3OCC(C)(O)C(NC)C3O)C2O)O1 (stereo not shown)")
1.806
>>> result("CN[C@@H]1[C@@H](O[C@H]2O[C@H](CO)[C@@H](N)[C@H](O)[C@H]2O)OC2C[C@@H](N)[C@@H](O[C@H]3[C@H](O)[C@@H](O)[C@H](N)C[C@@H]3N)OC2[C@@H]1O (stereo partly shown)")
1.806

---

System: P. aeruginosa ATCC BAA-3107 (SEN) and P. aeruginosa LESB58 (MDR)
Experiment: microbe, parasite or virus in culture
Type: cell-based, Pseudomonas aeruginosa
Conditions: Pseudomonas aeruginosa, ATCCBAA3107, Pseudomonas aeruginosa LESB 58 (PA-MDR); across three biological replicates
Below: a set of entries, each annotated with reported MIC.
measuredAttribute: MIC (µg/mL)

>>> recordednumber("O=c1ccc2ncc(=O)n3c2n1C[C@H]3CN1CCC(NCc2cc3c(cn2)OCCC3)CC1 [Gepotidacin]")
4
>>> recordednumber("COc1c(N2C[C@@H]3CCCN[C@@H]3C2)c(F)cc2c(=O)c(C(=O)O)cn(C3CC3)c12 [Moxifloxacin]")
32

---

Consider the following compounds and their measured Relative MIC readings.
Tested on: E. coli ATCC 25922 (SEN) and E. coli NCTC13846 (MDR)
Experiment: Frequency-of-resistance (FoR) assay, relative MIC of mutants
Type: cell-based, Escherichia coli
Settings: Escherichia coli ATCC 25922 (EC-SEN); evolved line 1 versus ancestor
measuredAttribute: Relative MIC

>>> result("O=c1ccc2ncc(=O)n3c2n1C[C@H]3CN1CCC(NCc2cc3c(cn2)OCCC3)CC1")
1
>>> result("C[C@@H](O)[C@H]1C(=O)N2C(C(=O)O)=C(S[C@H]3CC[S@@+]([O-])C3)S[C@H]12")
1
>>> result("CNC(C)C1CCC(N)C(OC2C(N)CC(N)C(OC3OCC(C)(O)C(NC)C3O)C2O)O1 (stereo not shown)")
16
>>> result("C[C@@H]1CN2c3c(cc4c(N5C(=O)OC[C@@H]5C)noc4c3F)CC3(C(=O)NC(=O)NC3=O)[C@H]2[C@H](C)O1")
8

---

Tested on: A. baumannii ATCC 17978 (SEN) and A. baumannii ATCC BAA-1605 (MDR)
Assay: Adaptive laboratory evolution (ALE), relative MIC of evolved lines
Format: cell-based, Acinetobacter baumannii
Details: Acinetobacter baumannii ATCC 17978 (AB-SEN), evolved line 9
Where a SMILES comes first, the peptide text is derived from it. Bridges are numbered along the chain shown (N, C = ends). [ ]: non-standard residue; d: D form. The star is where a group is joined. X1 = NC[C@@H](CC(=O)*)c1cccc(Cl)c1; Dab = NCC[C@H](N)C(=O)O; Dap = NC[C@H](N)C(=O)O
Catalogue of molecules with associated Relative MIC
measuredAttribute: Relative MIC

>>> recordednumber("C[C@@H](O)[C@H]1C(=O)N2C(C(=O)O)=C(S[C@H]3CC[S@@+]([O-])C3)S[C@H]12")
16
>>> recordednumber("CN[C@@H]1[C@@H](O[C@H]2O[C@H](CO)[C@@H](N)[C@H](O)[C@H]2O)OC2C[C@@H](N)[C@@H](O[C@H]3[C@H](O)[C@@H](O)[C@H](N)C[C@@H]3N)OC2[C@@H]1O (some centres unmarked)")
32
>>> recordednumber("CN(C)[C@@H]1C(O)=C(C(N)=O)C(=O)[C@@]2(O)C(O)=C3C(=O)c4c(O)c(NC(=O)CN5CCCC5)cc(F)c4C[C@H]3C[C@@H]12")
128
>>> recordednumber("CC(C)c1ccc(Cn2ccc3c4c(N)nc(NC5CC5)nc4ccc32)cc1")
2
>>> recordednumber("C[C@H]1c2cccc(O)c2C(=O)C2=C(O)[C@]3(O)C(=O)C(C(N)=O)=C(O)[C@@H](N(C)C)[C@@H]3[C@@H](O)[C@@H]21")
16
>>> recordednumber("CNC(C)C1CCC(N)C(OC2C(N)CC(N)C(OC3OCC(C)(O)C(NC)C3O)C2O)O1 (centres unmarked)")
128
>>> recordednumber("CC(C)C[C@@H]1NC(=O)[C@@H](Cc2ccccc2)NC(=O)[C@H](CCN)NC(=O)[C@@H](NC(=O)[C@H](CN)NC(=O)[C@@H](NC(=O)C[C@H](CN)c2cccc(Cl)c2)[C@@H](C)O)CCNC(=O)[C@H]([C@@H](C)O)NC(=O)[C@H](CCN)NC(=O)[C@H](CCN)NC1=O [SPR206] (X1-T[Dap][Dab][Dab][dF]L[Dab][Dab]T; lactam 3-C (inferred); N-terminus assumed)")
8192
>>> recordednumber("Nc1nc(-n2cc(C(=O)O)c(=O)c3cc(F)c(N4CC(O)C4)c(Cl)c32)c(F)cc1F")
128

---

Test system: A. baumannii ATCC 17978 (SEN) and A. baumannii ATCC BAA-1605 (MDR)
Test: microbe, parasite or virus in culture
Format: cell-based, Acinetobacter baumannii
Conditions: Acinetobacter baumannii, Acinetobacter baumannii ATCC BAA-1605 (AB-MDR); across three biological replicates
measuredAttribute: MIC (µg/mL)

>>> recordednumber("C[C@@H]1CN2c3c(cc4c(N5C(=O)OC[C@@H]5C)noc4c3F)CC3(C(=O)NC(=O)NC3=O)[C@H]2[C@H](C)O1 [Zoliflodacin]")
16
>>> recordednumber("CN(C)c1cc(CNCC(C)(C)C)c(O)c2c1C[C@H]1C[C@H]3[C@H](N(C)C)C(O)=C(C(N)=O)C(=O)[C@@]3(O)C(O)=C1C2=O [Omadacycline]")
16
>>> recordednumber("O=c1ccc2ncc(=O)n3c2n1C[C@H]3CN1CCC(NCc2cc3c(cn2)OCCC3)CC1 [Gepotidacin]")
32
>>> recordednumber("COc1c(N2C[C@@H]3CCCN[C@@H]3C2)c(F)cc2c(=O)c(C(=O)O)cn(C3CC3)c12 [Moxifloxacin]")
32
>>> recordednumber("Nc1nc(-n2cc(C(=O)O)c(=O)c3cc(F)c(N4CC(O)C4)c(Cl)c32)c(F)cc1F [Delafloxacin]")
8
>>> recordednumber("C[C@H]1c2cccc(O)c2C(=O)C2=C(O)[C@]3(O)C(=O)C(C(N)=O)=C(O)[C@@H](N(C)C)[C@@H]3[C@@H](O)[C@@H]21 [Doxycycline]")
8
>>> recordednumber("CN[C@@H]1[C@@H](O[C@H]2O[C@H](CO)[C@@H](N)[C@H](O)[C@H]2O)OC2C[C@@H](N)[C@@H](O[C@H]3[C@H](O)[C@@H](O)[C@H](N)C[C@@H]3N)OC2[C@@H]1O (stereo partly shown) [Apramycin]")
8
>>> recordednumber("CN(C)[C@@H]1C(O)=C(C(N)=O)C(=O)[C@@]2(O)C(O)=C3C(=O)c4c(O)c(NC(=O)CN5CCCC5)cc(F)c4C[C@H]3C[C@@H]12 [Eravacycline]")
2

---

Tested on: E. coli ATCC 25922 (SEN) and E. coli NCTC13846 (MDR)
Test: Frequency-of-resistance (FoR) assay, relative MIC of mutants
Format: cell-based, Escherichia coli
Conditions: E. coli NCTC 13846 (EC-MDR), evolved line 3, evolved vs ancestor
Where a SMILES comes first, the peptide text is derived from it. Bridges are numbered along the chain shown (N, C = ends). [ ]: non-standard residue; d: D form. The star is where a group is joined. X1 = NC[C@@H](CC(=O)*)c1cccc(Cl)c1; Dab = NCC[C@H](N)C(=O)O; Dap = NC[C@H](N)C(=O)O
Relative MIC reference
measuredAttribute: Relative MIC

>>> result("O=c1ccc2ncc(=O)n3c2n1C[C@H]3CN1CCC(NCc2cc3c(cn2)OCCC3)CC1")
1
>>> result("CN(C)[C@@H]1C(O)=C(C(N)=O)C(=O)[C@@]2(O)C(O)=C3C(=O)c4c(O)c(NC(=O)CN5CCCC5)cc(F)c4C[C@H]3C[C@@H]12")
2
>>> result("C[C@@H](O)[C@H]1C(=O)N2C(C(=O)O)=C(S[C@H]3CC[S@@+]([O-])C3)S[C@H]12")
1
>>> result("CC(C)C[C@@H]1NC(=O)[C@@H](Cc2ccccc2)NC(=O)[C@H](CCN)NC(=O)[C@@H](NC(=O)[C@H](CN)NC(=O)[C@@H](NC(=O)C[C@H](CN)c2cccc(Cl)c2)[C@@H](C)O)CCNC(=O)[C@H]([C@@H](C)O)NC(=O)[C@H](CCN)NC(=O)[C@H](CCN)NC1=O [SPR206] (X1-T[Dap][Dab][Dab][dF]L[Dab][Dab]T; lactam 3-C (inferred); N-terminus assumed)")
16
>>> result("CNC(C)C1CCC(N)C(OC2C(N)CC(N)C(OC3OCC(C)(O)C(NC)C3O)C2O)O1 (centres unmarked)")
4
